Measured Fluorescence lifetime τ of individual entries
- assay overview: Fluorescence lifetimes in solvents, two-photon excitation with TCSPC
- Type: physicochemical
- particulars: MeOH, 20° C., two-photon excitation 620-630 nm; ne = non-exponential

query smiles: COc1ccc(/C=C/c2cc(OC)c(OC)c(OC)c2)cc1F
Fluorescence lifetime τ [ns]: 0.44
--
query smiles: COc1ccc(/C=C/c2cc(OC)c(OC)c(OC)c2)cc1O
Fluorescence lifetime τ [ns]: 0.23

###

Listed here are compounds together with their documented Two photon absorption cross section σ2.
- assay overview: Two-photon absorption cross section using reference fluorophore 9-chloroanthracene
- Type: physicochemical
- particulars: at 620 nm, DCM

query smiles: COc1ccc(/C=C/c2cc(OC)c(OC)c(OC)c2)cc1O
unit symbol: GM units
Two photon absorption cross section σ2: 2.1

query smiles: COc1ccc(/C=C/c2cc(OC)c(OC)c(OC)c2)cc1F
unit symbol: GM units
Two photon absorption cross section σ2: 2.75

query smiles: COc1ccc(/C=C/c2cc(OC)c(OC)c(OC)c2)cc1N
unit symbol: GM units
Two photon absorption cross section σ2: 5.7

query smiles: COc1cc(/C=C/c2ccc(N(C)C)cc2)cc(OC)c1OC
unit symbol: GM units
Two photon absorption cross section σ2: 5.7

###

# Fluorescence lifetime τ values compiled below
- assay overview: Fluorescence lifetimes in solvents, two-photon excitation with TCSPC
- Type: physicochemical
- particulars: Ethylene glycol, 20° C., two-photon excitation 620-630 nm; ne = non-exponential

query smiles: COc1ccc(/C=C/c2cc(OC)c(OC)c(OC)c2)cc1F
unit symbol: ns
Fluorescence lifetime τ: 0.76
//
query smiles: COc1ccc(/C=C/c2cc(OC)c(OC)c(OC)c2)cc1O
unit symbol: ns
Fluorescence lifetime τ: 0.58

###

- assay overview: Fluorescence lifetimes in solvents, two-photon excitation with TCSPC
- Type: physicochemical
- particulars: DMSO, 20° C., two-photon excitation 620-630 nm
Decision: Fluorescence lifetime τ compared against 0.7 ns; not below it gives met, below it gives not met.

query smiles: COc1ccc(/C=C/c2cc(OC)c(OC)c(OC)c2)cc1F
label: met
--
query smiles: COc1ccc(/C=C/c2cc(OC)c(OC)c(OC)c2)cc1O
label: not met
--
query smiles: COc1cc(/C=C/c2ccc(N(C)C)cc2)cc(OC)c1OC
label: not met
--
query smiles: COc1ccc(/C=C/c2cc(OC)c(OC)c(OC)c2)cc1N
label: met

###

# Fluorescence lifetime τ values compiled below
- assay overview: Fluorescence lifetimes in solvents, two-photon excitation with TCSPC
- Type: physicochemical
- particulars: Hexane, 20° C., two-photon excitation 620-630 nm
measurement label: Fluorescence lifetime τ

query smiles: COc1ccc(/C=C/c2cc(OC)c(OC)c(OC)c2)cc1F
observed result: 0.75 ns

query smiles: COc1ccc(/C=C/c2cc(OC)c(OC)c(OC)c2)cc1N
observed result: 1.65 ns

query smiles: COc1cc(/C=C/c2ccc(N(C)C)cc2)cc(OC)c1OC
observed result: 0.41 ns

query smiles: COc1ccc(/C=C/c2cc(OC)c(OC)c(OC)c2)cc1O
observed result: 0.86 ns
